- Subject of test: purified full-length human ERβ (Homo sapiens, UniProt Q92731)
- Sequence (Q92731 whole entry): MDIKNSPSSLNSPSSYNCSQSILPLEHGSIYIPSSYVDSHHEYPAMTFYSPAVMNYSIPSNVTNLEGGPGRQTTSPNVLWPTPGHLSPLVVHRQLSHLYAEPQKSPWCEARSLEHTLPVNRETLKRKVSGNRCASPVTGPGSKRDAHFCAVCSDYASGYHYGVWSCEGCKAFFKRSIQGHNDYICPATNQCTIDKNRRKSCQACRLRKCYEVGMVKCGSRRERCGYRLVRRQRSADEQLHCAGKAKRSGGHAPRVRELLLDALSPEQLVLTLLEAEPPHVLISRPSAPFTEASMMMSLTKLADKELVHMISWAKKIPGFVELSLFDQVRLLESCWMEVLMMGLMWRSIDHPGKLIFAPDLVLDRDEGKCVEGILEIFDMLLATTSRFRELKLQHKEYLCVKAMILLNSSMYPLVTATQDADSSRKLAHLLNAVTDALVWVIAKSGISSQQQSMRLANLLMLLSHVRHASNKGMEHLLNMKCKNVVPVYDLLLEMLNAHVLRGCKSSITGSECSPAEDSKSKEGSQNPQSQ
pKi: −log10 of the molar value.
Parameter: pKi

# Compound, Value
data = [
    ("C/C(=N\\O)c1cc(-c2ccc(O)cc2)ccc1O", 8.96),
]
